Source: PubChem BioAssay (Tox21)

assay: qHTS assay to identify small molecule antagonists of the glucocorticoid receptor (GR) signaling pathway - cell viability counter screen (AID 720693); details: GR-bla HeLa viability, CellTiter-Glo luminescence, 18 h, with 5 nM dexamethasone present; series mostly up to 58.5 µM; also: nearly all actives have a fitted effect of over 55% in size
Inconclusive results are not listed. Activity calls are given as the source filed them. Calls follow the shape of the dose curve; as a rule, active = well fitted cell-killing curve with a large enough effect in the repeat runs; inconclusive = weak or mixed curves, or effect the other way; inactive = no such curve, though single readings can be large or run the other way.
Outcomes: active, inactive

| Compound | Class Label |
| --- | --- |
| O=C1c2ccccc2C(=O)C1C(=O)C(c1ccccc1)c1ccc(Cl)cc1 (stereo not given) | active |
| CCCCCCCCCCCCCCCCCCn1cc[n+](C)c1 | active |
| CN(C)[C@@H]1C(=O)C(C(N)=O)=C(O)[C@@]2(O)C(=O)C3=C(O)c4c(O)ccc(Cl)c4[C@@](C)(O)[C@H]3C[C@@H]12 | inactive |
| CC(C)OS(C)(=O)=O | inactive |
| CN(C)CCc1c[nH]c2ccc(O)cc12 | inactive |
| CC(C)OC(=S)S | inactive |
| O=[N+]([O-])c1ccc2ccc3cccc4ccc1c2c34 | inactive |
| Clc1ccc(C(Cl)(Cl)Cl)c(Cl)c1 | inactive |
| CN(C)c1ccc(N=Nc2ccccc2)cc1 | inactive |
| CN(C)C1CSSSC1 | inactive |
| FC(Cl)(Cl)Cl | inactive |
| CCC(C)(C)C(=O)OC1=C(c2ccc(Cl)cc2Cl)C(=O)OC12CCCCC2 | inactive |
| ClC(Cl)=C(Cl)Cl | inactive |
| c1ccc(OCC2CO2)cc1 (stereo not given) | inactive |
| CC(Cc1ccc(C(C)(C)C)cc1)CN1C[C@@H](C)O[C@@H](C)C1 (stereo not given in full) | inactive |
| CCOC(=O)C1(c2ccccc2)CCN(CCC(C#N)(c2ccccc2)c2ccccc2)CC1 | inactive |
| BrCBr | inactive |
| COc1cc(C=O)cc2c1[C@H](COC(N)=O)[C@]1(OC(C)=O)ON2C[C@H]2[C@@H]1N2C(C)=O | active |
| CC1(C)CN=C(NN=C(/C=C/c2ccc(C(F)(F)F)cc2)/C=C/c2ccc(C(F)(F)F)cc2)NC1 | active |
| COc1cc(N)c(Cl)cc1C(=O)NC1CN2CCC1CC2 (stereo not given) | inactive |
| CCCCCCCCCCCCCN1CC(C)OC(C)C1 (stereo not given) | inactive |
| CN(C)CCc1c[nH]c2cccc(O)c12 | inactive |
| Nc1ccc(Cc2ccc(N)c(Cl)c2)cc1Cl | active |
| O=[N+]([O-])c1cc(C(F)(F)F)c(Cl)c([N+](=O)[O-])c1Cl | active |
| Nc1ccccc1C(=O)OC/C=C/c1ccccc1 | inactive |
| ClC(Cl)=C(c1ccc(Cl)cc1)c1ccc(Cl)cc1 | inactive |
| COP(=S)(OC)Oc1cc(Cl)c(Br)cc1Cl | inactive |
| CCCCCCCCCCCCCC[P+](CCCCCC)(CCCCCC)CCCCCC (tested in a mixture with another compound) | active |
| C=CC(=O)OCC(COC(=O)C=C)(COC(=O)C=C)COC(=O)C=C | active |
| [CH3][Hg][Cl] | active |
| Nc1ccccc1C(=O)Oc1ccc2ccccc2c1 | inactive |
| CCCN(CCC)c1c([N+](=O)[O-])cc(S(N)(=O)=O)cc1[N+](=O)[O-] | active |
| CC(C)[C@H](C(=O)OC(C#N)c1cccc(Oc2ccccc2)c1)c1ccc(OC(F)F)cc1 (stereo not given in full) | inactive |
| Cc1cc(C)cc(OP(=O)(Oc2cc(C)cc(C)c2)Oc2cc(C)cc(C)c2)c1 | inactive |
| CC1(c2ccc(Oc3ccccc3)cc2)OC(=O)N(Nc2ccccc2)C1=O (stereo not given) | active |
| ClC1=C(Cl)[C@]2(Cl)[C@H]3[C@H]([C@H]4C=C[C@H]3C4)[C@@]1(Cl)C2(Cl)Cl | inactive |
| O=[N+]([O-])O.O=[N+]([O-])O.[Cd] | inactive |
| O=C/C(Cl)=C(/Cl)C(=O)O | inactive |
| CC1CCC(C(C)C)C(OC(=O)c2ccccc2N)C1 (stereo not given) | inactive |
| CC(C)CC(C)(c1ccc(O)cc1)c1ccc(O)cc1 | active |

###

target: Thyrotropin-releasing hormone receptor (Homo sapiens) (UniProt P34981); assay: qHTS assay to identify small molecule agonists of the thyrotropin-releasing hormone receptor (TRHR) signaling pathway (AID 1346891); conditions: TRHR-HEK293 calcium fluorescence, agonist mode; series mostly up to 57.6 µM
Sequence (P34981 whole entry, looked up): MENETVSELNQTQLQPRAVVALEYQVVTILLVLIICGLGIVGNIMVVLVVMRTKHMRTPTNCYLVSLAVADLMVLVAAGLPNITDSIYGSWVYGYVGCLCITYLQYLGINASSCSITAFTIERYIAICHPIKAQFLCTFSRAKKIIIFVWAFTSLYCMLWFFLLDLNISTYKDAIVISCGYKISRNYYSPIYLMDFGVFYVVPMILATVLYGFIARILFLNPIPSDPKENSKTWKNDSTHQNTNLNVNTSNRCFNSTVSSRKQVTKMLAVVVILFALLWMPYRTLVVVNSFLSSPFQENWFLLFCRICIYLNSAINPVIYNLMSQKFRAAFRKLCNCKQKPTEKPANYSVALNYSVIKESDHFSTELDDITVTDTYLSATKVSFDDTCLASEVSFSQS
The source made the active and inactive calls. Calls come from the whole dose curve.
Outcomes: yes (1) for active, no (0) for inactive

| Compound | Class Label |
| --- | --- |
| CC(C)C(=O)Cl | no (0) |
| CC1CCC(C(C)C)C(OC(=O)c2ccccc2N)C1 (stereo not given) | no (0) |
| C=CC(=O)OCC(COC(=O)C=C)(COC(=O)C=C)COC(=O)C=C | no (0) |
| CN(CCCC(=O)c1cccnc1)N=O | no (0) |
| C[C@@H]1CC[C@@]2(OC1)O[C@H]1[C@@H](O)[C@H]3[C@@H]4CC[C@H]5C[C@@H](O[C@@H]6O[C@H](CO)[C@H](O[C@@H]7O[C@H](CO)[C@@H](O)[C@H](O[C@@H]8OC[C@@H](O)[C@H](O)[C@H]8O)[C@H]7O[C@@H]7O[C@H](CO)[C@@H](O)[C@H](O[C@@H]8O[C@H](CO)[C@@H](O)[C@H](O)[C@H]8O)[C@H]7O)[C@H](O)[C@H]6O)[C@H](O)C[C@]5(C)[C@H]4CC[C@]3(C)[C@H]1[C@@H]2C | yes (1) |

###

assay: qHTS assay to identify small molecule antagonists of the thyroid receptor (TR) signaling pathway - cell viability counter screen (AID 743064); conditions: GH3.TRE-Luc viability, CellTiter-Fluor, 24 h; series mostly up to 70.3 µM; also: nearly all actives have a fitted effect of over 50% in size
Inconclusive results are not listed. Activity calls are given as the source filed them. Calls follow the shape of the dose curve; as a rule, active = well fitted cell-killing curve with a large enough effect in the repeat runs; inconclusive = weak or mixed curves, or effect the other way; inactive = no such curve, though single readings can be large or run the other way.
Outcomes: true (1) (active), false (0) (inactive)

| Molecule | Class Label |
| --- | --- |
| CCCCCCCCCCCCCC[P+](CCCCCC)(CCCCCC)CCCCCC (tested in a mixture with another compound) | true (1) |
| S=C(SSC(=S)N1CCCCC1)N1CCCCC1 | true (1) |
| CC(Cc1ccc(C(C)(C)C)cc1)CN1C[C@@H](C)O[C@@H](C)C1 (stereo partly specified) | false (0) |
| CCN | false (0) |
| O=C(CCl)C(Cl)Cl | true (1) |
| Fc1cccc(Cl)c1CCl | false (0) |
| Cc1ccc(OP(=O)(Oc2ccccc2)Oc2ccccc2)cc1 | false (0) |
| CC(=O)C(Cl)(Cl)Cl | true (1) |
| COC12CC[C@@]3(C[C@@H]1C(C)(O)C(C)(C)C)[C@H]1Cc4ccc(O)c5c4[C@@]3(CCN1CC1CC1)[C@H]2O5 (stereo partly specified) | true (1) |
| C[C@]12Cc3nonc3C[C@@H]1CC[C@@H]1[C@@H]2CC[C@@]2(C)[C@H]1CC[C@]2(C)O | true (1) |
| CS(=O)(=O)c1ccc(C(=O)C2C(=O)CCCC2=O)c([N+](=O)[O-])c1 | true (1) |

###

assay: Caspase-3/7 induction in CHO-K1 cells by small molecules, qHTS cell viability counter screen (AID 1346979); conditions: CellTiter-Fluor fluorescence, 17 h; series mostly up to 92.4 µM; also: nearly all actives have a fitted effect of over 35% in size; also: potency is read from the fitted curve at half-maximal effect
Results filed as inconclusive are left out. Activity calls are given as the source filed them. The call rests on the fitted dose curve; in most records, active means well fitted cell-killing curve with a large enough effect in the repeat runs; inconclusive means weak or mixed curves, or effect the other way; inactive means no such curve, though single readings can be large or run the other way.
Quantity Measured: Potency

| Compound | Quantity Measured | Recorded Measurement |
| --- | --- | --- |
| CCN(CC)C(=S)[S-].CCN(CC)C(=S)[S-].[Zn+2] | Potency | 2.41 µM (active) |
| CC(Cl)CN(C)C (stereo not drawn) | Potency | inactive |
| Clc1ccc(CCC(Cn2ccnc2)Sc2c(Cl)cccc2Cl)cc1 (stereo not drawn) | Potency | 11.9 µM (active) |
| [Cl][Sb]([Cl])[Cl] | Potency | 54.5 µM (active) |
| COP(N)(=S)OC | Potency | inactive |
| N#CCCO | Potency | inactive |
| N#Cc1ccccc1N | Potency | inactive |
| O=c1c(C2CC(c3ccc(-c4ccc(Br)cc4)cc3)Cc3ccccc32)c(O)sc2ccccc12 (stereo not drawn) | Potency | 18.8 µM (active) |

###

experiment: qHTS assay to identify small molecule agonists of the peroxisome proliferator-activated receptor delta (PPARd) signaling pathway - cell viability counter screen (AID 743211); details: PPARd-bla HEK293H viability, CellTiter-Glo luminescence, 17 h; series mostly up to 62.6 µM; also: nearly all actives have a fitted effect of over 55% in size
Records with an inconclusive call do not appear. Activity calls are given as the source filed them. Calls come from the whole dose curve; as a rule, active = well fitted cell-killing curve with a large enough effect in the repeat runs; inconclusive = weak or mixed curves; inactive = no such curve, though single readings can be large or run the other way.
Outcomes: True = active, False = inactive

| Cpd Smiles | Class Label |
| --- | --- |
| ClC(Cl)=C(Cl)Cl | False |
| O=C(O)c1cc[c]([Hg][Cl])cc1 | True |
| CCCCCCCCCC[N+](C)(C)CCCCCCCCCC | True |
| CC(=O)[O-].CC(=O)[O-].O.O.[Cd+2] | True |
| CC1(C)CN=C(NN=C(/C=C/c2ccc(C(F)(F)F)cc2)/C=C/c2ccc(C(F)(F)F)cc2)NC1 | True |
| ClC(Cl)=C(c1ccc(Cl)cc1)c1ccc(Cl)cc1 | True |
